- experiment: RPMI8226 myeloma cell viability, profiling panel, resazurin fluorescence, basal, 24 h, PK04 Diversity Set (AID 1180);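 also: RPMI8826 multiple myeloma cell line at 5000 cells per well; test concentration not given here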
- experimental parameters: higher = more signal
measure name: z-score
Give the value as a plain number.

Some entries whose results are on file:
[[record]]
compound = "COC(=O)C(CC#Cc1ccc2c(c1)[C@]1(C(=O)N2)[C@H](C(=O)O)[C@H]2C(=O)O[C@H](c3ccccc3)[C@H](c3ccccc3)N2[C@@H]1c1ccc(O)cc1)C(=O)OC"
reading = -0.0124

[[record]]
compound = "O=C(NCc1ccc(F)cc1)[C@H]1C[C@H]2C(=O)N[C@@H](Cc3ccccc3)C(=O)N2[C@H]1c1ccc(O)cc1"
reading = 0.512

[[record]]
compound = "CCN(CC)c1ccc(N2CC=CC34O[C@@H]5/C=C\\CCC(C)OC(=O)C5[C@H]3C(=O)N(C(CO)C(C)C)[C@@H]4C2=O)cc1 (some centres not stated)"
reading = 0.259

[[record]]
compound = "COc1ccc(C(=O)Nc2cccc(CN3C(=O)[C@]4(O[C@H](CCO)[C@@H]([Si](C)(C)c5ccc(OC)cc5)[C@@H]4C)c4ccccc43)c2)cc1"
reading = -6.27

[[record]]
compound = "O=C1OCCC/C=C\\[C@H]2OC34C=CCN(Cn5nnc6ccccc65)C(=O)[C@H]3N(CCO)C(=O)[C@@H]4C12 (some centres not stated)"
reading = 0.0966

[[record]]
compound = "CC(C)(C)OC(=O)CC[C@@]12N=C(c3ccc(OCCCO)cc3)O[C@@H]1c1ccccc1N(CCS(=O)(=O)c1ccccc1)C2=O"
reading = -0.835


Query compound follows.
Q) Which z-score reading was recorded for the compound CCCCCN1CC=CC23O[C@@H]4/C=C\CCCOC(=O)C4[C@H]2C(=O)N(CCCO)[C@@H]3C1=O (some centres not stated) ?
A) 1.72
